Please respond with reported koff for every item in the list.
target-entity: T1, human-CD40 monomer (human, UniProt P25942 21-193, limits assumed)
T1 construct: also called hCD40-monomer; human-CD40-monomer protein
T1 sequence (P25942 21-193 limits assumed): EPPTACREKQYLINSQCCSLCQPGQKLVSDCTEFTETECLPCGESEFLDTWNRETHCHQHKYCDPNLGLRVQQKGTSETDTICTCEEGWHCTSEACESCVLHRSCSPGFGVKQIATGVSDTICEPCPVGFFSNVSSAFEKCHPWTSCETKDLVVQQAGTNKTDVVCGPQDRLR
protocol: SPR 2 pt screen, Ab on protein A
Answer in s⁻¹, number only, no unit symbol.

Data request: Param item = humanized Y1238 hz20 (hz-HC4 / hz-LC5), IgG1.3f (antibody, V domains shown, IgG1.3f heavy constant, common CL; expression supernatant; also called Sup 20) VH: QVQLVQSGAEVKKPGASVKVSCKASGYAFTNYLIEWVRQAPGQGLEWMGVINPGSGGTNYNEKFKGRVTMTADKSISTAYMELSRLRSDDTAVYYCARSQLGRRFDYWGQGTLVTVSS VL: DIQMTQSPSSLSASVGDRVTITCKASQDVRTGVAWYQQKPGQAPKLLIYSASYRNTGVPSRFSGSRSGTDFTFTISSLQPEDIAVYYCQQHYSPPYTFGGGTKVEIK ; retrieve measured koff.
Data returned: 0.00037

Data request: Param item = humanized Y1238 hz26 (hz-HC6 / hz-LC1), IgG1.3f (antibody, V domains shown, IgG1.3f heavy constant, common CL; expression supernatant; also called Sup 26) VH: QVQLVQSGAEVKKPGASVKVSCKASGYAFTNYLIEWVRQRPGQGLEWMGVINPGSGGTNYNEKFKGRVTLTADKSISTAYMELSRLRSDDTAVYYCARSQLGRRFDYWGQGTLVTVSS VL: DIQMTQSPSSLSASVGDRVTITCKASQDVRTGVAWYQQKPGKAPKLLIYSASYRNTGVPSRFSGSGSGTDFTFTISSLQPEDIATYYCQQHYSPPYTFGGGTKVEIK ; retrieve measured koff.
Data returned: 0.00012

Data request: Param item = humanized Y1238 hz35 (hz-HC7 / hz-LC5), IgG1.3f (antibody, V domains shown, IgG1.3f heavy constant, common CL; expression supernatant; also called Sup 35) VH: QVQLVQSGAEVVKPGASVKVSCKASGYAFTNYLIEWVRQRPGQGLEWMGVINPGSGGTNYNEKFKGRVTMTADKSSSTAYMQLSRLRSDDTAVYFCARSQLGRRFDYWGQGTLVTVSS VL: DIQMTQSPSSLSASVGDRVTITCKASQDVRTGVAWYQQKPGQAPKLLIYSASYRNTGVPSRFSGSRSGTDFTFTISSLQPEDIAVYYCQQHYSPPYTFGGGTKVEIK ; retrieve measured koff.
Data returned: 0.00037

Ref: patent US20220177596A1
